Origin of measurements: PubChem BioAssay

targetSystem: Voltage-gated potassium channel subunit beta-2 (Rattus norvegicus) (UniProt P62483)
Sequence (P62483 whole entry, looked up): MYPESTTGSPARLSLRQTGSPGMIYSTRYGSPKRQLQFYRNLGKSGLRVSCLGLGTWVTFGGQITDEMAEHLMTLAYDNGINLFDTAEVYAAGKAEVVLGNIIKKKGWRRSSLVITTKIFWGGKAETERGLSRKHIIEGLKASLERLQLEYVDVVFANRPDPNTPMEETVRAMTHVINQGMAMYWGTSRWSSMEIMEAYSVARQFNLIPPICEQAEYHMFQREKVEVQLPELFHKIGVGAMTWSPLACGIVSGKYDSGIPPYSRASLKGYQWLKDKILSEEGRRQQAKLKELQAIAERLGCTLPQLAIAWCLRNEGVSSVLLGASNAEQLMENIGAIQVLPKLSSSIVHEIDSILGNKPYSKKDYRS
experimentalProtocol: KvBeta positive modulators, primary screen, biochemical, NADPH fluorescence (AID 623);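 note: fluorescence intensity change per second fitted from 20 to 320 s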
conditionParameters: Recombinant KvBeta, NADPH fluorescence decrease slope, 10 min; at 10 µM; active compounds read low
Where a SMILES comes first, the peptide text is derived from it. The star is where a group is joined. Boc = CC(C)(C)OC(=O)*
readoutLabel: NADPH fluorescence slope

INSERT INTO assay_data (compound, observedvalue) VALUES
  ('Cc1nnc(N2C(=O)c3oc4ccccc4c(=O)c3C2c2ccco2)s1 (stereo not given)', '-2.5e-05'),
  ('COc1ccc(N2CCN(C(=O)C(OC(C)=O)c3ccccc3)CC2)cc1 (stereo not given)', '4.8e-05'),
  ('COC(=O)c1c(O)ccc(Oc2ccccc2)c1C(=O)OC', '-2.9e-06'),
  ('CN(C)C(=O)N1CCCC(C(=O)NCc2ccccc2)C1 (stereo not given)', '-2.4e-05'),
  ('O=C(COC(=O)c1cncc(Br)c1)NCCC1=CCCCC1', '-3.9e-05'),
  ('O=C(NC1CCCCC1)C(c1ccccc1)N(Cc1ccco1)C(=O)Cn1cnc2ccccc21 (stereo not given)', '-3.7e-05'),
  ('Cc1c(C2CC(=O)N(c3ccccc3)C2=O)[nH]n(-c2ccccc2)c1=O (stereo not given)', '-5.3e-05'),
  ('CCOc1ncccc1C(=O)Nc1ccc(Cl)cc1', '-3.2e-06'),
  ('Cc1ccc2cc(CN(Cc3ccc4c(c3)OCO4)Cc3nnnn3Cc3ccco3)c(=O)[nH]c2c1C', '4.5e-05'),
  ('CCc1ccccc1NC(=O)CCc1nc(-c2ccc(C)cc2)no1', '1.2e-05'),
  ('COC(=O)/C=c1/s/c(=C(\C#N)C(=O)NCc2ccco2)n(-c2ccccc2)c1=O', '-3.8e-05'),
  ('CCCCc1ccc(NC(=O)N[C@H](C(=O)O)C(C)C)cc1', '1.8e-05'),
  ('C=CCNc1nc(C)nc(OC)n1', '-4.7e-05'),
  ('CN(c1ccc(OCc2nnc(-c3ccccc3)o2)cc1)S(=O)(=O)c1ccccc1', '-5.4e-05'),
  ('Cc1ccc2nc(NC(=O)CN(C)S(=O)(=O)c3cccc4nsnc34)sc2c1', '-4.4e-05'),
  ('CCCCc1[nH]c(=O)c(C#N)c2c1CSC(C)(C)C2', -0.000112),
  ('Cc1ccc(N2CC(C(=O)Nc3ccc(N(C)C)cc3)CC2=O)cc1C (stereo not given)', '-9.5e-07'),
  ('CCOC(=O)NC(Nc1sc2c(c1C(=O)OC)CCN(C)C2)(C(F)(F)F)C(F)(F)F', '-3.3e-05'),
  ('COc1cccc(C(=O)OC2CCCN(C)C2)c1 (stereo not given)', '-8.4e-05'),
  ('CCCn1c(C)nc2c(c1=O)c1nc3ccccc3nc1n2CCc1ccccc1', '2.6e-05'),
  ('COc1ccc(NC(=O)CN(c2ccc(C)cc2)S(C)(=O)=O)c(OC)c1', '-6e-05'),
  ('COCc1[nH]nc2c1C(c1ccc(OC)cc1)C(C#N)=C(N)O2 (stereo not given)', '-6e-05'),
  ('CCN(CC)c1nc(C)c2c(c1C#N)CC(C)(C)OC2', '-1.1e-05'),
  ('COc1ccc(-c2[nH]nc3c2C(c2ccncc2)C(C#N)=C(N)O3)cc1 (stereo not given)', '-4.4e-05'),
  ('CCC(C)C(NC(=O)OC(C)(C)C)C(=O)NC(CC(C)C)C(N)=O (stereo not drawn) (Boc-Ile-Leu-NH2; configuration not given here)', '-6.5e-05'),
  ('Cc1ccc(CSC2=NCCN2C(=O)c2ccco2)cc1', '-1.3e-05'),
  ('O=C(CSc1nnc2c3cc(F)ccc3nc(-c3ccccc3)n12)N1CCOCC1', '-7.1e-06'),
  ('CSc1ccccc1NC(=O)c1cnc2n(c1=O)CCS2', '1e-05'),
  ('CCOCCn1c(CN2CCN(CC)CC2)nc2c1c(=O)n(C)c(=O)n2C', '-2.7e-05'),
  ('CCCC1CC(=O)OC1(C)C(=O)CSc1n[nH]c(-c2ccccc2)n1 (stereo not given)', '-1.5e-05'),
  ('COc1cccc(Cn2c(-c3nonc3N)nc3ccccc32)c1', '-8.2e-05'),
  ('O=C(c1cc2ccccc2oc1=O)N1CCN(c2ccc(N3CCOCC3)nn2)CC1', '-1.8e-05'),
  ('COc1ccc(S(=O)(=O)N2CCC(C(=O)Nc3c(F)cccc3F)CC2)cc1', '3.8e-05'),
  ('CCOC(=O)C1=C(O)CCn2c1nc1ccccc12', -0.000164),
  ('NC(=O)COC(=O)c1ccc(S(=O)(=O)N2CCCCCC2)cc1', '-6.2e-05'),
  ('O=C1C2CC=CCC2C(=O)N1c1ccc(Cc2ccncc2)cc1 (stereo not given)', '5.4e-05'),
  ('Nc1nnnn1N=C1CCCCC1', '-3.7e-05'),
  ('COC(=O)[C@@H](NC(=O)NCc1ccccc1Cl)C(C)C', '-2.9e-05'),
  ('Cc1cc(NC(=O)c2cccc(S(=O)(=O)N3CC(c4ccccc4)CC3=O)c2)no1 (stereo not given)', '-5.1e-05'),
  ('Cc1ccc(S(=O)(=O)N(CC(O)CN(C)C)c2ccccc2)cc1 (stereo not given)', '-7e-05'),
  ('NC(=O)C(Cc1ccccc1)NS(=O)(=O)c1ccc(N2CCCC2=O)cc1 (stereo not given)', '-4e-05'),
  ('Cc1cc(/C=N/n2cnnc2)c(C)n1-c1ccc2c(c1)OCO2', '-6.1e-05'),
  ('O=C(NCCCn1ccnc1)c1cccnc1', -0.000144),
  ('O=c1cc(-c2ccco2)nc(-c2cccs2)o1', '-5.3e-05'),
  ('O=C(O)COc1ccc(S(=O)(=O)NCCc2ccccc2)cc1', '-6.9e-05');
